Tested on: SK-OV-3 ovarian
Experiment: NCI tumour cell line growth inhibition, 48 h

Compound: Brc1ccc2c(-c3nc(-c4c[nH]c5ccc(Br)cc45)cs3)c[nH]c2c1
System under test: SK-OV-3 ovarian
TGI: 29.4 µM
//
Compound: CCOC(=O)CC(NC(=O)c1nc[nH]c1[N+](=O)[O-])C(=O)OCC (centres undefined)
System under test: SK-OV-3 ovarian
TGI: > 100 µM
//
Compound: c1ccc2c(c1)nc1n2CNCC1
System under test: SK-OV-3 ovarian
TGI: > 100 µM
//
Compound: C=C1CC[C@@]2(OC1)OC1C[C@H]3[C@@H]4CC=C5C[C@@H](O)CC(OC6OCC(OC(=O)[C@@H](O)[C@@H](C)CC)C(OC(C)=O)C6OC6OC(C)C(O)C(O)C6O)[C@]5(C)[C@H]4CC[C@]3(C)C1[C@@H]2C (some centres undefined)
System under test: SK-OV-3 ovarian
TGI: 3.57 µM
//
Compound: CCCN(CCCCC(NC(C)=O)C(=O)NCc1ccccc1)C(=O)N(CCCl)N=O (centres undefined)
System under test: SK-OV-3 ovarian
TGI: > 100 µM
//
Compound: O=C(CSc1nnc(Cc2ccccc2)o1)Nc1cccc([N+](=O)[O-])c1
System under test: SK-OV-3 ovarian
TGI: > 100 µM
//
Compound: CC(=O)SCCC1c2[nH]c3ccccc3c2CCN1O (centres undefined)
System under test: SK-OV-3 ovarian
TGI: > 100 µM
//
Compound: COc1ccc(-n2c(SCc3cc(OC)c(OC)c(OC)c3)nc3ccc(C)cc3c2=O)cc1
System under test: SK-OV-3 ovarian
TGI: > 100 µM
//
Compound: COc1cc(-c2c(C#N)c(N)n3c(nc4ccccc43)c2C#N)cc(Br)c1OC
System under test: SK-OV-3 ovarian
TGI: > 100 µM
//
Compound: C=C(C)[C@@H](C(=O)OC)N1C(=O)c2ccccc2C1=O
System under test: SK-OV-3 ovarian
TGI: > 100 µM
//
Compound: CCN(CC)Cc1cc(Nc2ccnc3ccc4c(nnn4C)c23)ccc1O
System under test: SK-OV-3 ovarian
TGI: 31.5 µM
//
Compound: CC(=O)c1cccc2c1CC1(C2)Cc2ccc3c(c2C1=O)CCC3 (centres undefined)
System under test: SK-OV-3 ovarian
TGI: > 100 µM
//
Compound: CCc1cccc(C)c1NC(C)=O
System under test: SK-OV-3 ovarian
TGI: > 100 µM
//
Compound: Cc1cc(=O)[nH]c(NNC(C#N)c2ccc(O)cc2)n1 (centres undefined)
System under test: SK-OV-3 ovarian
TGI: > 100 µM
//
Compound: O=C(CCc1ccc(O)cc1)NCCc1ccc(O)cc1
System under test: SK-OV-3 ovarian
TGI: > 100 µM
//
Compound: N#CCCN(CCC#N)c1ccc(C(=O)NN)cc1
System under test: SK-OV-3 ovarian
TGI: > 100 µM
//
Compound: NCCCNCCSSCCCCS(=O)O
System under test: SK-OV-3 ovarian
TGI: > 100 µM
//
Compound: CCOC(=O)c1c(SC(=O)/C=C/c2ccccc2)n(-c2ccccc2)c(=S)n(-c2ccccc2)c1=O
System under test: SK-OV-3 ovarian
TGI: > 100 µM
//
Compound: Cc1cccc2c(N)c3cccc(C(=O)NCCCNCCN)c3nc12
System under test: SK-OV-3 ovarian
TGI: > 62.8 µM
